The following binders are listed with their measured cAMP EC50, HEK-293 cells stably overexpressing human GLP-1 R values.
biological target: human GLP-1 receptor (human, UniProt P43220 24-463); assay: cell-based or functional assay
Provide only the numeric value, understood in nM.

Study these solved cases before continuing.
YXQGTXTSDYSIFLDKKAQXAFIEFLLEGGPSSGAPPXS (Aib at 2; αMeF(2F) at 6; Lys 17 side chain AEEAc-AEEAc-γGlu-CO(CH2)18COOH; Aib at 20; Ac3c at 38; C-terminal amide (NH2)) [Compound 5]
0.022
YXQGTXTSDYSIXLDKKAQXAFIEFLLEXHPSSGAPPXS (Aib at 2; αMeF(2F) at 6; αMeL at 13; Lys 17 side chain AEEAc-AEEAc-γGlu-CO(CH2)18COOH; Aib at 20; Aib at 29; Ac3c at 38; C-terminal amide (NH2)) [Compound 31]
0.012
YXQGTXTSDYSIFLDKKAQXAFIEFLLETGPSSGAPPXS (Aib at 2; αMeF(2F) at 6; Lys 17 side chain AEEAc-AEEAc-γGlu-CO(CH2)18COOH; Aib at 20; Ac3c at 38; C-terminal amide (NH2)) [Compound 9]
0.017

Name the recorded cAMP EC50, HEK-293 cells stably overexpressing human GLP-1 R of the item YXQGTXTSDYSIXLDKKAQXAFIEYLLETGPSSGQPPXS (Aib at 2; αMeF at 6; αMeL at 13; Lys 17 side chain AEEAc-AEEAc-γGlu-CO(CH2)18COOH; Aib at 20; Ac3c at 38; C-terminal amide (NH2)) [Compound 35] in your answer. 0.022

Name the recorded cAMP EC50, HEK-293 cells stably overexpressing human GLP-1 R of the item YXQGTXTSDYSIFLDKKAQXAFIEFLLEXHPSSGAPPPS (Aib at 2; αMeF at 6; Lys 17 side chain AEEAc-AEEAc-γGlu-CO(CH2)18COOH; Aib at 20; Aib at 29; C-terminal amide (NH2)) [Compound 16] in your answer. 0.02

Name the recorded cAMP EC50, HEK-293 cells stably overexpressing human GLP-1 R of the item YXQGTXTSDYSIXLDKKAQXAFIEFLLEGRPSSXHPPPS (Aib at 2; αMeF(2F) at 6; αMeL at 13; Lys 17 side chain AEEAc-AEEAc-γGlu-CO(CH2)18COOH; Aib at 20; Aib at 34; C-terminal amide (NH2)) [Compound 25] in your answer. 0.031

Values from patent US20250129135A1
